# Procedure Text: in vitro
# Experimental Setup: human, HepG2 cells
So I've got a bunch of compounds here, and I need their CC50 values.

Summary for this compound, COc1ccc(C#N)cc1S(=O)(=O)N(Cc1ccc(F)cc1)C1CCOCC1 [DNDI0003388084] : CC50 is > 64 µM

Summary for this compound, COc1ccc(Cl)cc1S(=O)(=O)N(Cc1ccccc1)CC(N)c1ccc(F)cc1 (stereo not shown) [DNDI0003389932] : CC50 is 19.5 µM

Summary for this compound, O=S(=O)(c1cccnc1N1CCOCC1)N(Cc1ccc(F)cc1)Cc1ccc(F)cc1 [DNDI0003389119] : CC50 is > 64 µM

Summary for this compound, COc1ccc(OC)c(S(=O)(=O)N(Cc2ccc(F)cc2)C2CCOCC2)c1 [DNDI0003388086] : CC50 is > 64 µM

###

# Procedure Text: in vitro
# Experimental Setup: human
Property Label: CC50 at 3 days

Summary for this compound, COc1ccc(OC)c(S(=O)(=O)N(Cc2ccc(F)cc2)Cc2ncccn2)c1 [DNDI0003370419] : CC50 at 3 days is > 64 µM

Summary for this compound, COc1ccc(OC)c(S(=O)(=O)N2CCC(c3ccccc3)CC2)c1 [DNDI0003370422] : CC50 at 3 days is > 64 µM

Summary for this compound, COc1cc(S(=O)(=O)NC(C)c2ccccc2)c(OC)cc1C (centres unmarked) [DNDI0002622495] : CC50 at 3 days is > 32 µM

Summary for this compound, COc1ccc(N2CCOCC2)cc1S(=O)(=O)N(Cc1ccc(F)cc1)Cc1ccc(F)cc1 [DNDI0003389118] : CC50 at 3 days is > 64 µM

Summary for this compound, COc1ccccc1S(=O)(=O)N(Cc1ccccc1)CC(O)c1ccc(F)cc1 (centres unmarked) [DNDI0003389317] : CC50 at 3 days is 40.7 µM

Summary for this compound, COc1ccc(OC)c(S(=O)(=O)N(Cc2ccc(F)cc2)c2ccc(F)cn2)c1 [DNDI0003370085] : CC50 at 3 days is > 64 µM

Summary for this compound, COc1ccc(C#N)cc1S(=O)(=O)N(Cc1ccc(F)cc1)Cc1oc(C)nc1C [DNDI0003370421] : CC50 at 3 days is 49.1 µM

Summary for this compound, COc1ccc(OC)c(S(=O)(=O)N(CCN2CCOCC2)Cc2ccccc2)c1 [DNDI0003368294] : CC50 at 3 days is > 64 µM

Summary for this compound, COc1ccc(N2CCN(C)CC2)cc1S(=O)(=O)N(Cc1ccc(F)cc1)Cc1ccc(F)cc1 [DNDI0003389645] : CC50 at 3 days is 28.7 µM

Summary for this compound, COc1ccc(Cl)cc1S(=O)(=O)N(Cc1ccccc1)C(CO)CO [DNDI0003389933] : CC50 at 3 days is > 64 µM

Summary for this compound, CCN(Cc1ccc(F)cc1)S(=O)(=O)c1cc(C(=O)N2CCOCC2)ccc1OC [DNDI0003392124] : CC50 at 3 days is > 64 µM

Summary for this compound, CCN(Cc1ccccc1)S(=O)(=O)c1ccccc1OC [DNDI0003363820] : CC50 at 3 days is 36.3 µM

Summary for this compound, COc1ccc(OC)c(S(=O)(=O)N(Cc2ccc(F)cc2)C2CCOCC2)c1 [DNDI0003388086] : CC50 at 3 days is > 64 µM

Summary for this compound, COc1ccc(S(=O)(=O)N2CCOCC2)cc1C(=O)N(Cc1ccc(F)cc1)Cc1ccc(F)cc1 [DNDI0003389643] : CC50 at 3 days is > 64 µM

Summary for this compound, O=C1c2ccccc2S(=O)(=O)N(Cc2ccccc2)C1Cc1ccccc1 (centres unmarked) [DNDI0003370098] : CC50 at 3 days is 30.8 µM

Summary for this compound, COCCN(Cc1ccccc1)S(=O)(=O)c1ccc(NC(C)=O)cc1 [DNDI0003366100] : CC50 at 3 days is > 64 µM

Summary for this compound, COc1ccc(Cl)cc1S(=O)(=O)N(Cc1ccccc1)CC(N)c1ccc(F)cc1 (centres unmarked) [DNDI0003389932] : CC50 at 3 days is 14 µM
